- target_entity: Diaphorase
- protocol_description: peptide array, 1 uM diaphorase, binding without FAD / with FAD
measurement_name: noFAD/FAD

Consider the following illustrative entries.
[[record]]
binder = "RAQYAQYLFGGSG"
experimental_value = 2.76

[[record]]
binder = "FQFGKVVSDGSG"
experimental_value = 0.637


[P] LKQLFLEGGSG
[Q] YSVDYWYQVDGSG
Query: Problem: Given the entries P and Q , determine which has the lower reported noFAD/FAD. The response must carry the label of the picked entry.
Reply: Q
(Q: 0.173, P: 0.63)
